Test system: Plasmopara viticola
Experiment: Test E: preventive control of grape downy mildew on grape seedlings
Type: in vivo
Details: sprayed day before inoculation, rate not given
parameter-measured: Test E disease control rating (%)
Only the number, expressed in %, is required.

compound	parameter-measured	readout-number
CC(NC(=O)c1c(Cl)ccnc1Cl)c1ncc(Cl)cc1Br (stereo not drawn)	Test E disease control rating	100
Cc1ccnc(Br)c1C(=O)NC(C)c1ncc(Br)cc1Cl (stereo not drawn)	Test E disease control rating	100
CC(NC(=O)c1c(Br)ccnc1Cl)c1ncc(Br)cc1Cl (stereo not drawn)	Test E disease control rating	100
CC(NC(=O)c1c(I)ccnc1F)c1ncc(Br)cc1Cl (stereo not drawn)	Test E disease control rating	100
Cc1cc(Cl)c(C(=O)NC(C)c2ncc(Cl)cc2Cl)c(Cl)n1 (stereo not drawn)	Test E disease control rating	100

Consider the compound shown here: O=C(NCc1ncc(I)cc1Cl)c1c(Cl)ccnc1Cl What is its recorded Test E disease control rating? 59

Consider the compound shown here: CC(NC(=O)c1c(Cl)ccnc1Cl)c1ncc(Cl)cc1Cl (racemic) What is its recorded Test E disease control rating? 99

Consider the compound shown here: CC(NC(=O)c1c(Br)ccnc1F)c1ncc(Br)cc1Cl (stereo not drawn) What is its recorded Test E disease control rating? 100

Consider the compound shown here: COc1cnc(C(C)NC(=O)c2c(Cl)cc(C)nc2Cl)c(Cl)c1 (stereo not drawn) What is its recorded Test E disease control rating? 100

====

System: Phytophthora infestans
Test: whole plant or invertebrate
Assay type: in vivo
Details: Phytophthora infestans, in Solanum tuberosum, 120 h, read-out: Test F disease control rating
parameter-measured: pest or weed control at 100 g/ha
The answer consists of two parts: a number and, after it, its unit.

compound	target-desc	pest or weed control at 100 g/ha
CC(NC(=O)c1c(Cl)ccnc1Cl)c1ncc(I)cc1Cl (centres unmarked)	Phytophthora infestans	88%

Consider the compound shown here: O=C(NCc1ncc(I)cc1Cl)c1c(Cl)ccnc1Cl What is its recorded pest or weed control at 100 g/ha? 98%

Consider the compound shown here: O=C(NCc1ncc(Br)cc1Cl)c1c(Cl)ccnc1Cl What is its recorded pest or weed control at 100 g/ha? 99%

Consider the compound shown here: Cc1cc(Cl)c(C(=O)NCc2ncc(Br)cc2Cl)c(Cl)n1 What is its recorded pest or weed control at 100 g/ha? 98%

Consider the compound shown here: CC(NC(=O)c1c(Cl)ccnc1Cl)c1ncc(Cl)cc1Cl (racemic) What is its recorded pest or weed control at 100 g/ha? 87%

Consider the compound shown here: Cc1cc(Cl)c(C(=O)NCc2ncc(I)cc2Cl)c(Cl)n1 What is its recorded pest or weed control at 100 g/ha? 83%

Consider the compound shown here: CC(NC(=O)c1c(Cl)ccnc1Cl)c1ncc(Br)cc1Cl (racemic) What is its recorded pest or weed control at 100 g/ha? 93%

Consider the compound shown here: Cc1cc(Cl)c(C(=O)NC(C)c2ncc(I)cc2Cl)c(Cl)n1 (centres unmarked) What is its recorded pest or weed control at 100 g/ha? 70%

====

Recorded Test G disease control rating by entry
System: Plasmopara viticola
Test: Test G: curative control of grape downy mildew on grape seedlings (sprayed after inoculation)
Type: in vivo
Conditions: sprayed day after inoculation, rate not given
Only the number, expressed in %, is required.

compound	parameter-measured	readout-number
CC(NC(=O)c1c(Cl)ccnc1Cl)c1ncc(OC(F)F)cc1Cl (stereo not shown) [Compound 11]	Test G disease control rating	100
CC(NC(=O)c1c(I)ccnc1Cl)c1ncc(Br)cc1Br (stereo not shown) [Compound 30]	Test G disease control rating	93
O=C(NCc1ncc(Br)cc1Br)c1c(Cl)ccnc1Cl [Compound 17]	Test G disease control rating	98

Proceeding to the next compound to report its Test G disease control rating.
Consider the compound shown here: Cc1cc(Cl)c(C(=O)NCc2ncc(Cl)cc2Br)c(Cl)n1 [Compound 40] What is its recorded Test G disease control rating? 99
